test_target: AChE (Electrophorus electricus)
Sequence (O42275 24-633): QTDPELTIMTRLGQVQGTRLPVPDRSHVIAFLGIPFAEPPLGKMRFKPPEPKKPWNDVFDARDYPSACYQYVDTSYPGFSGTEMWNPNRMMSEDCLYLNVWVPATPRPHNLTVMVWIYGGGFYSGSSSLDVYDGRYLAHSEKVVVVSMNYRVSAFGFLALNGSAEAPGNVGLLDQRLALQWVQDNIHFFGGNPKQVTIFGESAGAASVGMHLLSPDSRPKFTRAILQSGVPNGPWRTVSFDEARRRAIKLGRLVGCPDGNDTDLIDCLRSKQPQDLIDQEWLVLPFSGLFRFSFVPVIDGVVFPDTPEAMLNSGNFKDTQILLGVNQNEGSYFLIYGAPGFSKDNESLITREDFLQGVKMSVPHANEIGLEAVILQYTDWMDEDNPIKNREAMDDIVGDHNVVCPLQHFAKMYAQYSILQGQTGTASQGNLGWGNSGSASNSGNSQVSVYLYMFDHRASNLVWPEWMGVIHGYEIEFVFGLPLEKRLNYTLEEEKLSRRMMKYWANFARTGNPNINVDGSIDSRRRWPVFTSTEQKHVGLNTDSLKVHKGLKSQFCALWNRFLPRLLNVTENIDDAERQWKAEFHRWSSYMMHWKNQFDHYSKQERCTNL
quantity_measured: IC50 (µM)
Unit µM implied. Number only.

Consider the worked cases shown below.
>  <smiles_entry>
OCc1ccc(C=NNc2nc(-c3ccc(Cl)cc3)cs2)o1

>  <quantity_unit>
µM

>  <experimental_result>
57.3

$$$$
>  <smiles_entry>
OCc1ccc(C=NNc2nc(-c3ccc(F)cc3)cs2)o1

>  <quantity_unit>
µM

>  <experimental_result>
53.3

$$$$
>  <smiles_entry>
O=[N+]([O-])c1cccc(-c2csc(NN=Cc3ccc(CO)o3)n2)c1

>  <quantity_unit>
µM

>  <experimental_result>
86.6

$$$$
>  <smiles_entry>
OCc1ccc(C=NNc2nc(-c3ccc(Br)cc3)cs2)o1

>  <quantity_unit>
µM

>  <experimental_result>
38.5

$$$$
>  <smiles_entry>
COc1ccc(-c2csc(NN=Cc3ccc(CO)o3)n2)cc1

>  <quantity_unit>
µM

>  <experimental_result>
21.1

$$$$
>  <smiles_entry>
OCc1ccc(C=NNc2nc(-c3ccc(-c4ccccc4)cc3)cs2)o1

>  <quantity_unit>
µM

>  <experimental_result>
49.5

$$$$
>  <smiles_entry>
OCc1ccc(C=NNc2nc(-c3ccc(Cl)c(Cl)c3)cs2)o1

>  <quantity_unit>
µM

>  <experimental_result>
38.9

$$$$
>  <smiles_entry>
O=[N+]([O-])c1ccc(-c2csc(NN=Cc3ccc(CO)o3)n2)cc1

>  <quantity_unit>
µM

>  <experimental_result>
21.7

$$$$

Ask | Would you mind telling me what IC50 value was observed for Cc1ccc(-c2csc(NN=Cc3ccc(CO)o3)n2)cc1 ?
Reply | 53.3

Ask | Given N#Cc1ccc(-c2csc(NN=Cc3ccc(CO)o3)n2)cc1 , state its recorded IC50.
Reply | 46.2

* * *

test_target: BChE (Equus caballus, UniProt P81908)
Construct: BChE (from horse serum)
Sequence (P81908 whole entry): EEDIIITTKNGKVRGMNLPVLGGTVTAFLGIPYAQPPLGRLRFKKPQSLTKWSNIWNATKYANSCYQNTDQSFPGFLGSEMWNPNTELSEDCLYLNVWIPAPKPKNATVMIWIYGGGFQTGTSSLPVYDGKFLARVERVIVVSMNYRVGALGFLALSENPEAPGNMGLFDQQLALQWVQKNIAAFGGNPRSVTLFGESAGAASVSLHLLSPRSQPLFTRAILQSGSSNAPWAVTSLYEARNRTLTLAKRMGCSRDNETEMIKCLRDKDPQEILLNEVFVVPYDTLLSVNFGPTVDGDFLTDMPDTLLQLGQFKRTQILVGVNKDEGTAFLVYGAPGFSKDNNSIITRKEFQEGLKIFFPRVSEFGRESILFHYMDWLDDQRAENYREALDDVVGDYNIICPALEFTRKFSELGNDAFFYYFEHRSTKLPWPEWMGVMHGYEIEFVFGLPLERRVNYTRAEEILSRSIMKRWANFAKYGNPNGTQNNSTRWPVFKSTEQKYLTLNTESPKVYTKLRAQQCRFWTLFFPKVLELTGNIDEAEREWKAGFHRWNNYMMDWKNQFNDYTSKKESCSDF
experimental_details: biochemical
condition: Lineweaver–Burk plots
Below is a list of entries, each paired with its recorded pKi value.
Convention used: pKi is expressed as -log10 of the molar concentration.

Recorded pKi, per entry:
>  <smiles_entry>
OCc1ccc(C=NNc2nc(-c3ccccc3)cs2)o1

>  <pKi>
4.87

$$$$
>  <smiles_entry>
OCc1ccc(C=NNc2nc(-c3ccc(Cl)c(Cl)c3)cs2)o1

>  <pKi>
5.09

$$$$

Here is the next item to consider.
Ask | Any idea what pKi was measured for N#Cc1ccc(-c2csc(NN=Cc3ccc(CO)o3)n2)cc1 ?
Reply | 5.02
